# PROTOCOL_SUMMARY: recombinant UMI read abundance after kanamycin selection (control-corrected) (log10(CPM+1)); higher = more efficient recombination; extreme values may be limits of the assay; sequences stand for … in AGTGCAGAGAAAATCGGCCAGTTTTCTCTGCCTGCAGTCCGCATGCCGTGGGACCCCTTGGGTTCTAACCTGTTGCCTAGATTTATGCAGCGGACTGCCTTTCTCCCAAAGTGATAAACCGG…AGGTTGGTTTCACT; site = the 11-nt donor
Record form. Attribute: recombinant UMI read abundance (log10). Fill in for each entry.
Numbers only.

q: Field request: recombinant UMI read abundance (log10) | item: CCTAAAGCATGGACCGGTTTTCCCGGTAATCCGTATTTGAT (site CCTCAAGCTAT)
a: 0.00248

Please report recombinant UMI read abundance (log10) for every entry that follows.
1. CGCAATCCATGGACCGGTTTTCCCGGTAATCCGTATTTGTG (site CGGAATCCTAA)
2. CTCTACACATGGACCGGTTTTCCCGGTAATCCGTATTTGCA (site CTCTACACTTG)
3. CGATCGACATGGACCGGTTTTCCCGGTAATCCGTATTTGCT (site CGATCGACTAA)
4. CCTGGTCCATGGACCGGTTTTCCCGGTAATCCGTATTTGCA (site CCTGGTCCTTG)
5. TCAAATTCATGGACCGGTTTTCCCGGTAATCCGTATTTGCC (site TCGAATTCTGG)

a:
1. 0
2. 2.37
3. 0.3
4. 0
5. 0

Please report recombinant UMI read abundance (log10) for every entry that follows.
1. TAGACTACATGGACCGGTTTTCCCGGTAATCCGTATTTGCA (site TAGACTACTTG)
2. CACTTGGCATGGACCGGTTTTCCCGGTAATCCGTATTTGAA (site CACTTGGCTTT)
3. TGGGCACCATGGACCGGTTTTCCCGGTAATCCGTATTTGCA (site TGGGCACCTTG)

a:
1: 1.62; 2: 1.33; 3: 0.00258

* * *

Record form. Attribute: recombinant barcode read abundance (log10). Fill in for each entry.
# PROTOCOL_SUMMARY: recombinant barcode read abundance after kanamycin selection (control-corrected) (log10(CPM+1)); higher = more efficient recombination; sequences stand for … in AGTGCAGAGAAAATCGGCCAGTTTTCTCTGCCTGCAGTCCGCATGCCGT…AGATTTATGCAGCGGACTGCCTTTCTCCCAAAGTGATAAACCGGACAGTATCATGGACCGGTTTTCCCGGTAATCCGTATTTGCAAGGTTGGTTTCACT; site = the 11-nt target
One number for each entry.

Field: example entries. Status: answers known.
q: Field request: recombinant barcode read abundance (log10) | item: TCCCATCCTTGGGTTCTAACCTGTTGCTT (site TCCCAGCCTCA)
a: 0.524

q: Field request: recombinant barcode read abundance (log10) | item: TAGAACACTTGGGTTCTAACCTGTTGCTT (site TAGAACACTTA)
a: 0.169

Please report recombinant barcode read abundance (log10) for every entry that follows.
1. GCCAACCCTTGGGTTCTAACCTGTTGCCT (site GCCAACCCTAG)
2. GGGGCCTCTTGGGTTCTAACCTGTTGCTT (site GGGGCTTCTAA)
3. CTCTGTCCTTGGGTTCTAACCTGTTGCTG (site CTCTGTCCTCA)
4. AATGGGGCTTGGGTTCTAACCTGTTGCTG (site AATGGGGCTCA)
5. CTAGGAGCTTGGGTTCTAACCTGTTGCTC (site CTAGGAGCTGA)

a:
1. 0.326
2. 0.398
3. 0.374
4. 1.15
5. 0.885

Please report recombinant barcode read abundance (log10) for every entry that follows.
1. ATAGGGACTTGGGTTCTAACCTGTTGCTA (site ATAGGGACTTA)
2. AGTGTCACTTGGGTTCTAACCTGTTGCGG (site GTGCAACCTAG)
3. AGAACAACTTGGGTTCTAACCTGTTGCCT (site AGTACAACTAG)
4. ATGCAACCTTGGGTTCTAACCTGTTGCCT (site ATGCAATCTAG)
5. CTCTAGACTTGGGTTCTAACCTGTTGCTG (site CTCTAGACTCA)
6. GGACGGCCTTGGGTTCTAACCTGTTGCCT (site GGACGTCCTAG)
7. TGTTGACCTTGGGTTCTAACCTGTTGCAT (site TGTAGATCTAT)
8. TCCTTCTCTTGGGTTCTAACCTGTTGCCT (site TCCTTCTCTAG)

a:
[2.91, 0.0283, 0.102, 0.293, 1.82, 0, 0.0346, 0.601]

Please report recombinant barcode read abundance (log10) for every entry that follows.
1. CACAGTGCTTGGGTTCTAACCTGTTGCCT (site CACAGTGCTAG)
2. TATAGGGCTTGGGTTCTAACCTGTTGCCG (site TATAGGGCTCG)

a:
1. 0.235
2. 0.402

Please report recombinant barcode read abundance (log10) for every entry that follows.
1. CATCCGTCTTGGGTTCTAACCTGTTGCCT (site CATCCGGCTAG)
2. TCGTCACCTTGGGTTCTAACCTGTTGCAT (site CTAGTGGCTCG)
3. CCTTTGACTTGGGTTCTAACCTGTTGCTT (site CCTTTGTCTAA)
4. CTAAATACTTGGGTTCTAACCTGTTGCCT (site CTAAATACTAG)
5. CCACCGCCTTGGGTTCTAACCTGTTGCCT (site ACACCGCCTAG)
6. GAAGCTCCTTGGGTTCTAACCTGTTGCGT (site GAGGCTCCTAC)
7. TAACTTACTTGGGTTCTAACCTGTTGCCT (site TAGCTTACTCG)

a:
1: 0.131; 2: 0; 3: 0.156; 4: 0.17; 5: 0.0161; 6: 0.581; 7: 0.0408

* * *

# PROTOCOL_SUMMARY: recombinant UMI read abundance after kanamycin selection (control-corrected) (log10(CPM+1)); higher = more efficient recombination; extreme values may be limits of the assay; sequences stand for … in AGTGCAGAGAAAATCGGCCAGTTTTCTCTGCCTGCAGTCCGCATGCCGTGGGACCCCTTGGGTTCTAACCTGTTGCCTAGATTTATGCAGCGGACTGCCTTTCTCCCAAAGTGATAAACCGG…AGGTTGGTTTCACT; site = the 11-nt donor
Cut-off 0.08 on recombinant UMI read abundance (log10), inclusive. At or above means class 1; below means class 0.

q: Is the recorded value of recombinant UMI read abundance (log10) equal to or greater than 0.08 for this sequence? AGGCTAGCATGGACCGGTTTTCCCGGTAATCCGTATTTGTT (site AGGCTAGCTAA)
a: class 1

q: Is the recorded value of recombinant UMI read abundance (log10) equal to or greater than 0.08 for this sequence? CGATCGACATGGACCGGTTTTCCCGGTAATCCGTATTTGTC (site CGATCGACTCA)
a: class 0

q: Is the recorded value of recombinant UMI read abundance (log10) equal to or greater than 0.08 for this sequence? AATGTAACATGGACCGGTTTTCCCGGTAATCCGTATTTGCC (site AATGTAACTGG)
a: class 1

***
q: Is the recorded value of recombinant UMI read abundance (log10) equal to or greater than 0.08 for this sequence? CTACTATCATGGACCGGTTTTCCCGGTAATCCGTATTTGGA (site CTACTACCTTC)
a: class 0

q: Is the recorded value of recombinant UMI read abundance (log10) equal to or greater than 0.08 for this sequence? GTAGTCGCATGGACCGGTTTTCCCGGTAATCCGTATTTGCT (site GTAGTCGCTCG)
a: class 1

q: Is the recorded value of recombinant UMI read abundance (log10) equal to or greater than 0.08 for this sequence? GCGAAGCCATGGACCGGTTTTCCCGGTAATCCGTATTTGGG (site GCGAAGCCTCT)
a: class 0

q: Is the recorded value of recombinant UMI read abundance (log10) equal to or greater than 0.08 for this sequence? TTAGCTGCATGGACCGGTTTTCCCGGTAATCCGTATTTGGG (site TTAGCTGCTCT)
a: class 0

q: Is the recorded value of recombinant UMI read abundance (log10) equal to or greater than 0.08 for this sequence? GGTACATCATGGACCGGTTTTCCCGGTAATCCGTATTTGTT (site GGTACTTCTAA)
a: class 0

* * *

# PROTOCOL_SUMMARY: recombinant UMI read abundance after kanamycin selection (control-corrected) (log10(CPM+1)); higher = more efficient recombination; extreme values may be limits of the assay; sequences stand for … in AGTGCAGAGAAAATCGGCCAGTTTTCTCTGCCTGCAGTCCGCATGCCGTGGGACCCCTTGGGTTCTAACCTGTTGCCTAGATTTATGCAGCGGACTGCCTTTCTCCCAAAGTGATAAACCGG…AGGTTGGTTTCACT; site = the 11-nt donor
Classes (recombinant UMI read abundance (log10)): b0 = under 0.009, b1 = from 0.009 up to 0.5, b2 = 0.5 and over

q: Dear colleague, I would appreciate it if you could identify the bin for CTACGAACATGGACCGGTTTTCCCGGTAATCCGTATTTGGA (site CTACCAACTTC) and reply at your convenience.
a: b1

q: Dear colleague, I would appreciate it if you could identify the bin for TAAAGGCCATGGACCGGTTTTCCCGGTAATCCGTATTTGTA (site TAAAGCCCTTA) and reply at your convenience.
a: b0

q: Dear colleague, I would appreciate it if you could identify the bin for TACTTGACATGGACCGGTTTTCCCGGTAATCCGTATTTGCT (site TACTTAACTAG) and reply at your convenience.
a: b0

q: Dear colleague, I would appreciate it if you could identify the bin for GAGCACGCATGGACCGGTTTTCCCGGTAATCCGTATTTGGG (site GAGCACGCTCC) and reply at your convenience.
a: b1

q: Dear colleague, I would appreciate it if you could identify the bin for ACACATACATGGACCGGTTTTCCCGGTAATCCGTATTTGAC (site ACACATGCTGT) and reply at your convenience.
a: b2

***
q: Dear colleague, I would appreciate it if you could identify the bin for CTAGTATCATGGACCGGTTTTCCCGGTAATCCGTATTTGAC (site CAAGTATCTGT) and reply at your convenience.
a: b2

q: Dear colleague, I would appreciate it if you could identify the bin for ACTGGAACATGGACCGGTTTTCCCGGTAATCCGTATTTGAG (site ACTCGAACTCT) and reply at your convenience.
a: b1

q: Dear colleague, I would appreciate it if you could identify the bin for GGCCACCCATGGACCGGTTTTCCCGGTAATCCGTATTTGCT (site GGCCACCCTAA) and reply at your convenience.
a: b1

q: Dear colleague, I would appreciate it if you could identify the bin for GTAAGCACATGGACCGGTTTTCCCGGTAATCCGTATTTGTA (site GTAGGCACTTA) and reply at your convenience.
a: b2
